target: Transient receptor potential cation channel subfamily M member 8 (Rattus norvegicus, UniProt Q8R455); test: Antagonist activity at rat TRPM8 channel transfected in HEK293 cells assessed as inhibition of calcium currents by Fluo-4 NW dye based fluorimetric assay; assay type: cell-based
Sequence (Q8R455 whole entry): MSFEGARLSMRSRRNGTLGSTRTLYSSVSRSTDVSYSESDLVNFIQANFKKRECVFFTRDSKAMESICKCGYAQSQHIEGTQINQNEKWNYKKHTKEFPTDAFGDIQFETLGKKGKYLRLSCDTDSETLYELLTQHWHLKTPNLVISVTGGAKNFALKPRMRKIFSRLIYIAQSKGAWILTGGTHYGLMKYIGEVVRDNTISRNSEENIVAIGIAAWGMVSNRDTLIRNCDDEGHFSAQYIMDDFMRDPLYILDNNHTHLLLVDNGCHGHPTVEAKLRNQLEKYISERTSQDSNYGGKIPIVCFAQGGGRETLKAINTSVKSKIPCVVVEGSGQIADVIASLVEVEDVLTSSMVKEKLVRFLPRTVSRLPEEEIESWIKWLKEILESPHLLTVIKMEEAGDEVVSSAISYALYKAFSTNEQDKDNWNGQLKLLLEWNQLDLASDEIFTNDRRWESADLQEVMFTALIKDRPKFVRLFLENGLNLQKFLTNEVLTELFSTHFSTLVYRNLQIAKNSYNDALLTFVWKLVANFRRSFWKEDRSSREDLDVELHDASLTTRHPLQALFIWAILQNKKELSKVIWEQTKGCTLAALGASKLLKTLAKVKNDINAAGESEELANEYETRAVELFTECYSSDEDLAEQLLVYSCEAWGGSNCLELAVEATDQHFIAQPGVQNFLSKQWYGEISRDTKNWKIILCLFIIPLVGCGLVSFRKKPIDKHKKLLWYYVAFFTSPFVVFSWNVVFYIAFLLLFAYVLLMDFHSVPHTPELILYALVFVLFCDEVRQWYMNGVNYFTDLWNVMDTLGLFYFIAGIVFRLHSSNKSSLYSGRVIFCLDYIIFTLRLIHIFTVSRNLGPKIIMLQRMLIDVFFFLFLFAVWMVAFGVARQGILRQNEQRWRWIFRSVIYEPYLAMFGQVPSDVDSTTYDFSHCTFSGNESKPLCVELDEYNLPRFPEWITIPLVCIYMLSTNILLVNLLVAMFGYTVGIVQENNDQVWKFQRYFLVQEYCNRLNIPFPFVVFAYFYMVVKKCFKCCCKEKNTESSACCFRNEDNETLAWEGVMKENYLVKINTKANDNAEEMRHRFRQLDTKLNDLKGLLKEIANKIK
pIC50: −log10 of the molar value.
Readout label: pIC50

A selection of reference data follows.
structure_string=COC(=O)[C@H](Cc1ccccc1)N(Cc1ccccc1)Cc1ccccc1 readout_label=pIC50 readout_number=6.49
structure_string=COC(=O)[C@H](Cc1ccc(N)cc1)N(Cc1ccccc1)Cc1ccccc1 readout_label=pIC50 readout_number=6.68
structure_string=COC(=O)[C@H](Cc1ccc(Cl)cc1)N(Cc1ccccc1)Cc1ccccc1 readout_label=pIC50 readout_number=6.55
structure_string=COC(=O)[C@H](Cc1ccc([N+](=O)[O-])cc1)N(Cc1ccccc1)Cc1ccccc1 readout_label=pIC50 readout_number=6.96
structure_string=O=C1[C@@H]2Cc3cc(O)c(O)cc3[C@@H](c3ccc(F)cc3)N2C(=O)N1c1cccc(C(F)(F)F)c1 readout_label=pIC50 readout_number=5.92
structure_string=O=C(NCc1ccc(F)cc1)[C@@H]1Cc2cc(O)c(O)cc2[C@H](c2ccc(F)cc2)N1 readout_label=pIC50 readout_number=4.76
structure_string=O=C1[C@H]2Cc3cc(O)c(O)cc3[C@H](c3ccc(F)cc3)N2C(=O)N1Cc1ccc(F)cc1 readout_label=pIC50 readout_number=5.66

A: O=C1[C@@H]2Cc3cc(O)c(O)cc3[C@@H](c3ccc(F)cc3)N2C(=O)N1Cc1ccc(F)cc1
B: COC(=O)[C@H](Cc1ccc(C)cc1)N(Cc1ccccc1)Cc1ccccc1
A or B : whose pIC50 is greater? Answer = label. B
(B: 6.54, A: 5.77)

----------
target: Transient receptor potential cation channel subfamily M member 8 (Rattus norvegicus, UniProt Q8R455); assay: Antagonist activity at rat TRPM8 channel transfected in HEK293 cells assessed as inhibition of menthol-induced calcium currents at -60 mV measured for 90 secs by whole cell patch clamp method; format: cell-based
Readout label: IC50 (nM)

structure_string=COC(=O)[C@H](Cc1ccc(O)c(O)c1)N(Cc1ccccc1)Cc1ccccc1 readout_label=IC50 unit_of_measure=nM readout_number=100

A: COC(=O)[C@H](Cc1ccc([N+](=O)[O-])cc1)N(Cc1ccccc1)Cc1ccccc1
B: COC(=O)[C@H](Cc1ccc(N)cc1)N(Cc1ccccc1)Cc1ccccc1
Kindly identify the item with the lower IC50 figure among these two: A and B Answer = label. A
(A: 60 nM, B: 110 nM)

----------
target: Transient receptor potential cation channel subfamily M member 8 (Rattus norvegicus); assay: Antagonist activity at rat TRPM8 channel transfected in HEK293 cells assessed as inhibition of calcium currents by Fluo-4 NW dye based fluorimetric assay; assay type: cell-based
Readout label: IC50 (µM)

a: O=C(NCc1ccc(F)cc1)[C@@H]1Cc2cc(O)c(O)cc2[C@@H](c2ccc(F)cc2)N1
b: O=C1[C@H]2Cc3cc(O)c(O)cc3[C@H](c3ccc(F)cc3)N2C(=O)N1c1cccc(C(F)(F)F)c1
c: COC(=O)[C@H](Cc1ccc(O)cc1)N(Cc1ccccc1)Cc1ccccc1
d: COC(=O)[C@H](Cc1ccc(O)c(O)c1)N(Cc1ccccc1)Cc1ccccc1
Sort the list above on IC50 in ascending fashion. Reply with the item labels sorted in the order that was asked for. c, d, a, b
(c: 0.25 µM, d: 0.49 µM, a: 0.85 µM, b: 2.1 µM)
